Measured values drawn from paper PMC10786891 for this set.

Molecular target: T1, EsCas13d, nuclease-dead (Eubacterium siraeum, UniProt B0MS50, R295A;H300A;R849A;H854A)
T1 sequence: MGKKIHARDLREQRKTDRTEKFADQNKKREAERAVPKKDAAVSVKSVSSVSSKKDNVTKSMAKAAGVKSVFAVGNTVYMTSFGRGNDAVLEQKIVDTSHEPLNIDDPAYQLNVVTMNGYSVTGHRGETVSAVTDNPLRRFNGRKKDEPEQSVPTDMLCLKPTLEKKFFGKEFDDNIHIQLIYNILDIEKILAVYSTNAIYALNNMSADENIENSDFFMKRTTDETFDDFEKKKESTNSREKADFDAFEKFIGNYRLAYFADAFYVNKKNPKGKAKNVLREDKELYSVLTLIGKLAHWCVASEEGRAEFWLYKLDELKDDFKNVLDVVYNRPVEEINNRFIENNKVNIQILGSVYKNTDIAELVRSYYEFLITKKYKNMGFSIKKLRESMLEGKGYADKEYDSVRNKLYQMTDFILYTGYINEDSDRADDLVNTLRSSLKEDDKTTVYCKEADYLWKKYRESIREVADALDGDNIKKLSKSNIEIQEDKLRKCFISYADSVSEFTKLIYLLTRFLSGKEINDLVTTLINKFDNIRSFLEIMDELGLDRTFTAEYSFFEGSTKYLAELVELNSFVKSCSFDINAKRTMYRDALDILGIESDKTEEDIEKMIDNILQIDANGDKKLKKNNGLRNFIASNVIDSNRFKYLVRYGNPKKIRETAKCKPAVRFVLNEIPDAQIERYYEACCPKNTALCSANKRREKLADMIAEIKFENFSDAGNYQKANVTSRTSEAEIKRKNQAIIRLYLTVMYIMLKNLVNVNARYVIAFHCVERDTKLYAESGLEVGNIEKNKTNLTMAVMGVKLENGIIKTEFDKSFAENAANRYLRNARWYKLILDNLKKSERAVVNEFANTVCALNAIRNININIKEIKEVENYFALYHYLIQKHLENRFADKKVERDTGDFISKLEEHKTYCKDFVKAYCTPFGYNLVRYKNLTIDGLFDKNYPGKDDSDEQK
Test: crRNA (strand 1, pre-loaded); Mg2+; 40 mM Tris-HCl pH 7.5, 150 mM NaCl, 6 mM MgCl2, 1 mM DTT, 0.1% Tween-20, 0.2 mg/ml BSA; 25 C; 10 min per concentration, then washed
Conditions: tags: His6-TwinStrep-SUMO cleaved; N-terminal SNAP kept (SNAP-Surface 488); label: 3' end held by stalled T7 RNA polymerase
Let's look at some binders and their measured Kd.

[[record]]
binder = "target 1 insC 3' of 12,insC 3' of 11 (mixed) RNA 1: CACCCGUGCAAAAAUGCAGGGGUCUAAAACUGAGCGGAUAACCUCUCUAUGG RNA 2: GGGAAUGGAUCCACAUCUACGAAUUCGUACCAUAGAGAGGCUCUAUCCGCUCACCGAGAUCGGAAGAGCACACGU"
data_value = "17 nM"

[[record]]
binder = "target 1 G5U,U11A (mixed) RNA 1: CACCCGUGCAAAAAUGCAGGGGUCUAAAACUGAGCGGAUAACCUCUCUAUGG RNA 2: GGGAAUGGAUCCACAUCUACGAAUUCGUACCAUAGAGAGGAUAUCCUCUCACCGAGAUCGGAAGAGCACACGU"
data_value = "~60 nM"

[[record]]
binder = "target 1 insG 3' of 21,insC 3' of 1 (mixed) RNA 1: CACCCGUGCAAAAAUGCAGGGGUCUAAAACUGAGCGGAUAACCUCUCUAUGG RNA 2: GGGAAUGGAUCCACAUCUACGAAUUCGUACCGAUAGAGAGGUUAUCCGCUCACCCGAGAUCGGAAGAGCACACGU"
data_value = "69 nM"


As a next step, examine the binder that follows.
Ask: Query: Kd; subject: target 2 MT 5'PFS AUU 3'PFS CGC (mixed) RNA 1: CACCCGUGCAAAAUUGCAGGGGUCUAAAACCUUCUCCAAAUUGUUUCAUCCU RNA 2: GGGAAUGGAUCCACAUCUACGAAUUCAUUAGGAUGAAACAAUUUGGAGAAGCGCAGAUCGGAAGAGCACACGU
Result: 7.8 nM
